// provenance: ChEMBL document CHEMBL1155485

Recorded EC50 for the following compounds
- SYSTEM_TESTED: P2Y purinoceptor 6 (Homo sapiens)
- Sequence (Q15077 whole entry): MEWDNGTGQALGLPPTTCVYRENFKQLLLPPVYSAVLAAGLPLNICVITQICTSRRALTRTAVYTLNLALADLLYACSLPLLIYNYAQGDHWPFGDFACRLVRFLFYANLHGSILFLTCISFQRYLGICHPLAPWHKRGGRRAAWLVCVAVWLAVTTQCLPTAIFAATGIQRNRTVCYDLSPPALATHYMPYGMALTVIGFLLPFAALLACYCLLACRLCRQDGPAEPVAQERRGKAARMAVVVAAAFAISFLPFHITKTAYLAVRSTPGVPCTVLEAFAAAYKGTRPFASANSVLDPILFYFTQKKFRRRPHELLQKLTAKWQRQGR
- TEST_NAME: Agonist activity at human recombinant P2Y6 receptor expressed in human 1321N1 cells assessed as [3H]inositol phosphate production by scintillation proximity assay

# GIVEN_SMILES, SYSTEM_TESTED, EC50
records = [
    ("CCN(CC)CC.O=c1ccn([C@@H]2O[C@H](COP(=O)(O)OP(=O)(O)OP(=O)(O)O[C@H]3O[C@H](CO)[C@@H](O)[C@H](O)[C@H]3O)[C@@H](O)[C@H]2O)c(=O)[nH]1", "P2Y purinoceptor 6 (Homo sapiens)", "> 10 µM"),
    ("O=C(Cn1c(=O)ccn([C@@H]2O[C@H](COP(=O)(O)OP(=O)(O)OP(=O)(O)O[C@H]3O[C@H](CO)[C@@H](O)[C@H](O)[C@H]3O)[C@@H](O)[C@H]2O)c1=O)c1ccccc1", "P2Y purinoceptor 6 (Homo sapiens)", "> 10 µM"),
    ("CCN(CC)CC.O=c1ccn([C@@H]2O[C@H](COP(=O)(O)CP(=O)(O)OP(=O)(O)O[C@H]3O[C@H](CO)[C@@H](O)[C@H](O)[C@H]3O)[C@@H](O)[C@H]2O)c(=O)[nH]1", "P2Y purinoceptor 6 (Homo sapiens)", "> 10 µM"),
]
